assay: HT1080 cell viability loss – fluorescence readout (AID 620); settings: at 10 µM;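 note: cells exposed to compound overnight then 4 h with Alamar Blue; 0% = vehicle DMSO and 100% = killing control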
Out of some 87,000 compounds screened, about 360 (0.41%) were called active. Cut-off read from the data, not from the text of the source: active = cytotoxicity above about 50%; inactive = the rest. Many of the other results were omitted from the sample, so actives are more common in it than they were.
Write down the outcome that applies. Available outcomes: active, inactive

// below: answered compounds
compound	classLabel
CCCCN(CCCC)S(=O)(=O)c1ccc(OC)c2ncccc12	inactive
Cc1c(C(=O)OCC(C)C)[nH]c2c1C(=O)CC(c1ccco1)C2 (stereo not given)	active
COc1ccccc1N1CCN(C(=O)C2c3ccccc3Oc3ccccc32)CC1	active
O=C(C1c2ccccc2Oc2ccccc21)N1CCN(c2ccc(Cl)cc2)CC1	inactive
Cc1nn(Cc2n[nH]c(=S)n2Cc2ccccc2)c(C)c1Cl	inactive
CCC(C)OC(=O)c1[nH]c2c(c1C)C(=O)CC(c1ccc(N(C)C)cc1)C2 (stereo not given)	inactive

IN: I'd appreciate the recorded outcome for CCOC(=O)C1=C(C)N(CCCC(=O)O)C(=O)NC1c1ccccc1OC(=O)c1cccs1 (stereo not given) from this test.
OUT: inactive

IN: Another: CCC1CCCN1Cn1cnc2c([nH]c3ccccc32)c1=O (stereo not given)
OUT: inactive

IN: Another: CCn1c(=O)n(CC)c2cc(S(=O)(=O)N3CCc4ccccc43)ccc21
OUT: active

IN: Another: O=C(O)CNc1nc(-c2ccccc2)nc2ccccc12
OUT: inactive

IN: Another: Cc1noc(C)c1CSc1nc2ccccc2c(=O)n1-c1ccccc1
OUT: inactive

IN: Another: CCc1cc2c(=O)n(Cc3ccco3)c(SCC(=O)N3CCCc4ccccc43)nc2s1
OUT: inactive

IN: Another: NC(=O)c1nsc(C(=O)N(CC(=O)NCc2ccc3c(c2)OCO3)C2CCCCC2)c1N
OUT: inactive

IN: Another: CCOC(=O)c1c(NC(=O)CCl)sc(C(=O)N(CC)CC)c1C
OUT: active

IN: Another: COc1cccc(-c2ccc(=O)n(CC(=O)NCCN3CCOCC3)n2)c1
OUT: inactive

IN: Another: CCOC(=O)C1Cc2ccccc2CN1 (stereo not given)
OUT: inactive

IN: Another: O=C(Nc1ccccc1N1CCCCC1)c1ncoc1-c1ccc(F)cc1
OUT: inactive

IN: Another: Fc1ccc2[nH]c3c(N4CCN(c5ccccc5)CC4)ncnc3c2c1
OUT: inactive

---

Recorded cytotoxicity values for a group of compounds are listed next.
assay: HT1080 cell viability loss – fluorescence readout (AID 620); conditions: at 10 µM, stronger effect = higher value
The whole screen tested about 87,000 compounds, of which about 360 (0.41%) were called active. The sample as a whole holds a higher share of actives than the screen did.
Only the number, expressed in %, is required.

Take a look at these entries with their results.
compound	unitsLabel	cytotoxicity
Cc1ccc(S(=O)(=O)Nc2ccnc3ccccc23)cc1	%	5.4
Cc1ccc(S(=O)(=O)NCc2cccnc2)s1	%	-11.9
CCOc1ccc(S(=O)(=O)N2CCN(C)CC2)c(C)c1C	%	11.2
COC(=O)c1ccc(C)c(NS(=O)(=O)c2ccc(OC)c(OC)c2)c1	%	4
O=C(C1CC1)N1CCCN(C(=O)C2CC2)CC1	%	1.3
Cc1cc(C(=O)CSc2nnnn2C)c(C)n1-c1ccc2c(c1)OCCO2	%	13.4

Moving on to the next compound.
IN: Give the measured cytotoxicity of Cc1cc(=O)c2ccccc2[nH]1 .
OUT: 26.5

---

assay: HT1080 cell viability loss – fluorescence readout (AID 620); details: at 10 µM
In all, about 87,000 compounds went through this assay and about 360 (0.41%) were called active. No stated cut-off is given here; in the data, active means cytotoxicity above about 50%; inactive means the rest. The full list was thinned out, with actives kept by preference.
Write down the outcome that applies. Available outcomes: YES = active, NO = inactive

// below: answered compounds
compound	classLabel
COc1ccc(OC)c(Nc2cc(-c3ccccc3)nc(N)n2)c1	YES
Cn1c(=O)c2c(nc(NCCc3ccccc3)n2Cc2ccc(F)cc2)n(C)c1=O	NO
C(=C\c1ccccc1)/CSc1nnc(-c2ccccc2)n1Cc1ccco1	YES
COc1ccc(OC)c(Nc2nc(N)nc(-c3cc4ccccc4o3)n2)c1	NO
COc1ccc(OC)c(Nc2cc(C)nc3ccccc23)c1	NO
Clc1cccc(-c2nnc(SC/C=C/c3ccccc3)n2Cc2ccco2)c1	NO
COc1ccc(CCn2nnnc2C(C(C)C)N2CCC(C(N)=O)CC2)cc1OC (stereo not drawn)	NO
O=C(OCC(=O)N1CCc2ccccc21)c1cccnc1Cl	NO

IN: I'd appreciate the recorded outcome for O=C(CCn1c(=S)[nH]c2ccccc2c1=O)N1CCOCC1 from this test.
OUT: NO

IN: Another: CCc1ccc(OC)c(S(=O)(=O)Nc2ccccc2C)c1
OUT: NO

IN: Another: CC(=O)N(Cc1ccc(F)cc1)C1=C(NCc2ccccc2)C(=O)c2ccccc2C1=O
OUT: YES

IN: Another: COc1ccc(OC)c(-n2nnnc2SCC(=O)Nc2ccc(C(=O)N3CCCCC3)cc2)c1
OUT: NO

IN: Another: CCCc1cc(=O)[nH]c(SCC(=O)C(C)(C)C)n1
OUT: NO

IN: Another: CCCCCCCCCCn1c2c(c(=N)c3c1CCC3)CCC2
OUT: NO

IN: Another: CCOC(=O)c1c(C)[nH]c(C)c1C(=O)CSc1nnc(-c2ccc(OC(F)F)cc2)o1
OUT: NO

IN: Another: O=C(Cc1ccc(F)cc1)NCCc1ccccc1
OUT: NO

IN: Another: COc1ccc(-c2noc(CN3CCCCC3)n2)cc1OC
OUT: NO

IN: Another: O=C1C=C(N(CCO)CCO)C2(CCCCC2)O1
OUT: NO

---

Recorded cytotoxicity values for a group of molecules are listed next.
test: HT1080 cell viability loss – fluorescence readout (AID 620); conditions: at 10 µM, stronger effect = higher value;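 note: cells exposed to compound overnight then 4 h with Alamar Blue; 0% = vehicle DMSO and 100% = killing control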
Out of some 87,000 compounds screened, about 360 (0.41%) were called active. This excerpt belongs to a sample that is enriched for actives.
Only the number, expressed in %, is required.

Take a look at these entries with their results.
molecule	cytotoxicity [%]
Cn1c(=O)c2c(nc(CN3CCN(c4ccccc4)CC3)n2CCN2CCOCC2)n(C)c1=O	8.9
N#CC1=C(N)C(C#N)(C#N)[C@H](c2ccoc2)[C@H]2CN(Cc3ccccc3)CC=C12	66.1
Cc1ccc2[nH]c3c(=O)n(CCCN4CCOCC4)cnc3c2c1	-1.5
CCOC(=O)c1[nH]c(C)c(C(=O)c2ccc(C)cc2)c1C	59.5
Cc1ccc2c(c1)c1c3n2CCCNC3CCC1 (stereo unspecified)	-1.3
Cc1ccc2c(c1)c1c3n2CCN(C(=O)C2CC2)C3CCC1 (stereo unspecified)	-15.3
CCOC(=O)c1[nH]c(C)c(C(=O)OCC)c1C	2.3
c1ccc2c(c1)c1c3n2CCNC3CCC1 (stereo unspecified)	-2.4
CN1CC=C2C(C#N)=C(N)C(C#N)(C#N)[C@H](c3ccoc3)[C@H]2C1	-7.5
Cc1ccc2c(c1)c1c3n2CCN(C(=O)CN2CCN(C)CC2)C3CCC1 (stereo unspecified)	12.8

Moving on to the next molecule.
IN: Give the measured cytotoxicity of c1cc2c(cc1C1CCCCC1)c1c3n2CCCNC3CCC1 (stereo unspecified) .
OUT: 69.7

---

assay: HT1080 cell viability loss – fluorescence readout (AID 620); conditions: at 10 µM;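 note: cells exposed to compound overnight then 4 h with Alamar Blue; 0% = vehicle DMSO and 100% = killing control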
About 360 (0.41%) of roughly 87,000 compounds were called active. Cut-off read from the data, not from the text of the source: active = cytotoxicity above about 50%; inactive = the rest. The sample as a whole holds a higher share of actives than the screen did.
Write down the outcome that applies. Available outcomes: 1 = active, 0 = inactive

// below: answered compounds
compound	classLabel
COC(=O)c1ccccc1S(=O)(=O)Nc1ccc(OC)nc1	0
Oc1ccc(-c2csc(-c3ccccc3)n2)cc1O	0
CC1Cc2ccccc2N1S(=O)(=O)c1ccc2c(c1)n(C)c(=O)c(=O)n2C (stereo unspecified)	0
CCOC(=O)C1=C(N)n2c(s/c(=C\c3ccco3)c2=O)=C(C(=O)OCC)C1c1ccco1 (stereo unspecified)	0
O=C(Nc1cc(Cl)ccc1O)C1CCCO1 (stereo unspecified)	0
Cc1cccnc1Nc1nc(-c2ccc(O)c(O)c2)cs1	0
COc1ccc(CNC(=O)Nc2ccc(C)cc2)cc1	0
CCOC(=O)C1=C(N)n2c(s/c(=C/c3ccccc3)c2=O)=C(C(=O)OCC)C1c1ccccc1 (stereo unspecified)	0
CCOC(=O)C1=C(N)n2c(s/c(=C\c3cccs3)c2=O)=C(C(=O)OCC)C1c1cccs1 (stereo unspecified)	1
COc1ccc(CS(=O)(=O)/C(Cl)=C(/Cl)C(=O)Nc2ccc(OC)nc2)cc1	1

In the following, a different compound is considered.
IN: I'd appreciate the recorded outcome for COc1ccc(NC(=O)/C(Cl)=C(/Cl)S(=O)(=O)Cc2ccccc2)cn1 from this test.
OUT: 1

---

assay: HT1080 cell viability loss – fluorescence readout (AID 620); conditions: at 10 µM, stronger effect = higher value;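 note: cells exposed to compound overnight then 4 h with Alamar Blue; 0% = vehicle DMSO and 100% = killing control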
Among all 87,000 compounds or so, about 360 (0.41%) were called active. This is one part of a sample in which actives are shown more often than they occur.
reportedMetric: cytotoxicity (%)
Only the number, expressed in %, is required.

IN: Give the measured cytotoxicity of O=C(C1CCCN1S(=O)(=O)c1ccc(Cl)c(Cl)c1)N1CCCCC1 (stereo unspecified) .
OUT: -5
